Cited source for all entries: PubChem BioAssay (NCI)

Recorded measurements of growth inhibition, one per entry
assay: NCI Yeast Anticancer Drug Screen. Data for the rad50 strain (AID 155);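 note: 0% = growth of vehicle-only cultures of the same strain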; conditions: S. cerevisiae rad50 strain growth inhibition; at 50.0 µM; stronger effect = higher value
This is part of a sample that, as a whole, favours compounds with a hit. Of some 79,000 tested, about 15% had one in any assay.
Numbers only; they are read as %.

Take a look at these entries with their results.
[[record]]
compound = "CC1Cc2c([nH]c(=O)n(C)c2=O)O1 (configuration not stated)"
measured = 1.15

[[record]]
compound = "O=C1CCCC/C1=C1/SC(=Nc2ccccc2)C(=Nc2ccccc2)N1c1ccccc1"
measured = 21.2

[[record]]
compound = "CC(=O)OC1(C)C(=O)OC/C2=C/CN(C)CCC(OC(=O)C(O)(C(C)Cl)CC1C)C2=O (configuration not stated)"
measured = 4.75

[[record]]
compound = "Cc1c(C)c(CO)c(C)c(C)c1CO"
measured = -15.8

[[record]]
compound = "CCCC[P+](CCCC)(CCCC)C(C(=O)OC)C(C(=O)OC)=C1SC(C(=O)OC)=C(C(=O)OC)S1 (configuration not stated)"
measured = -0.75

[[record]]
compound = "CC(=[N-])CC(C)=O.O=C(CC(=Nc1ccccc1)c1ccccc1)c1ccccc1.[Cu+]"
measured = -21.2

[[record]]
compound = "C=CCC(C(=O)O)c1ccccc1 (configuration not stated)"
measured = -11.2

[[record]]
compound = "COc1cc2c(cc1OC)C1C(=O)c3c(O)cc4c(c3OC1CO2)C=CC(C)(C)O4 (configuration not stated)"
measured = 49.8

[[record]]
compound = "O=C(O)CCNc1ncnc2nc[nH]c12"
measured = -65.5

[[record]]
compound = "N#CC(NCCc1ccccc1)c1ccccc1 (configuration not stated)"
measured = 2.45


Data request, read-out growth inhibition, for Nc1nnnn1-c1cccc(Cl)c1
7.5

Cool, now O=S(=O)(O)CO
16.9

* * *

Recorded measurements of growth inhibition, one per entry
Experiment: NCI Yeast Anticancer Drug Screen. Data for the bub3 strain (AID 167)
Settings: S. cerevisiae bub3 mutant strain, at 50.0 µM, stronger effect = higher value
Experimental: Growth inhibition of yeast strains with defined genetic alterations is measured as a screen for potential anti-cancer activity. Selected strains with alterations in DNA damage repair or cell cycle control were exposed to compounds and growth inhibition was measured relative to vehicle treated controls. The strain used in this assay is bub3
About 79,000 compounds went through this panel and 15% of them were active in at least one assay; those are over-represented in the sample as a whole. Calls of active or inactive are those of the source. Cut-off read from the data, not from the text of the source: active = growth inhibition above about 70%; inactive = the rest.

Take a look at these entries with their results.
[[record]]
molecule = "O=C(O)C1CC2C3CC(C(=O)O)C(C3)C2C1 (stereo not given)"
measurement_kind = "growth inhibition"
measured = "-10.8% (inactive)"

[[record]]
molecule = "NCCCC(N)C(=O)O (stereo not given)"
measurement_kind = "growth inhibition"
measured = "-42.6% (inactive)"

[[record]]
molecule = "FC(F)(F)c1nnc(-c2ccccc2)nn1"
measurement_kind = "growth inhibition"
measured = "-14.8% (inactive)"

[[record]]
molecule = "CN(C)CC(C(N)=O)C(N)=O"
measurement_kind = "growth inhibition"
measured = "-10.5% (inactive)"

[[record]]
molecule = "CN(CC(C)(C)C=O)C(=O)c1ccccc1"
measurement_kind = "growth inhibition"
measured = "-19.1% (inactive)"


Data request, read-out growth inhibition, for NC1=C(O)C(=O)C(c2cccc(O)c2)O1 (stereo not given)
3.2% (inactive)

Cool, now CN1CCN(c2ccncc2S(=O)(=O)N2CCN(C)CC2)CC1
-11.4% (inactive)

Cool, now COCC/C=C\CN(C(C)C)C(C)C
3.5% (inactive)

Cool, now C1=Cc2ccccc2Nc2ccccc21
-11.9% (inactive)

Cool, now CC(Oc1ccc2c(-c3ccc(Cl)cc3)cc(=O)oc2c1)C(=O)O (stereo not given)
-7.15% (inactive)

Cool, now N#CC(c1ccccc1)C1CCN(Cc2ccccc2)CC1 (stereo not given)
45.8% (inactive)

Cool, now Cc1c(O)c2c(c(O)c1Cc1ccc(C#N)cc1)C(=O)c1ccccc1C2=O
-1.95% (inactive)

Cool, now NC1=NS(=O)(=O)Nc2nc(-c3ccc([N+](=O)[O-])cc3)[nH]c21
-38.2% (inactive)

Cool, now CN(C)Cc1cn(C[Si](C)(C)C)c2ccccc12
3.75% (inactive)

Cool, now O=S1(=O)NNC(=NCc2ccc(Cl)c(Cl)c2)c2ccccc21
3.2% (inactive)

Cool, now C=CCOC(=O)OC(C)C(=O)OCC=C (stereo not given)
-2.25% (inactive)

Cool, now O=C1c2ccccc2C2(O)Oc3cccc(O)c3C12O (stereo not given)
2.85% (inactive)

Cool, now CCOC(=O)c1nc2ccc(OC)cc2c2c1Cc1ccccc1-2
0.55% (inactive)

* * *

test: NCI Yeast Anticancer Drug Screen. Data for the rad50 strain (AID 155);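 note: 0% = growth of vehicle-only cultures of the same strain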; conditions: S. cerevisiae rad50 strain growth inhibition; at 50.0 µM; stronger effect = higher value
The panel holds about 79,000 compounds, 15% with a hit somewhere; the sample as a whole holds those more often.
measurement-kind: growth inhibition (%)
Numbers only; they are read as %.

[[record]]
compound = "O=C(CBr)c1c2c(cc3c1CCCC3)CCCC2"
measurement_kind = "growth inhibition"
measured = 1.75


Data request, read-out growth inhibition, for Clc1ccc(Cl)c(-c2csc(-c3cccnc3)n2)c1
4.95

Cool, now CCCOc1ncnc2nc[nH]c12
7.3

Cool, now COc1cc2c(cc1OC)C(=O)C(C1CCCCC1)NC2 (centres undefined)
20.7

Cool, now C(=N\N(CCCCN(/N=C/c1ccccc1)c1ccccc1)c1ccccc1)/c1ccccc1
38.5

* * *

test: NCI Yeast Anticancer Drug Screen. Data for the cln2 rad14 strain (AID 165);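 note: 0% = growth equal to vehicle treated cultures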; settings: S. cerevisiae cln2 rad14 strain, at 50.0 µM, stronger effect = higher value
About 79,000 compounds went through this panel and 15% of them were active in at least one assay; those are over-represented in the sample as a whole. The source made the active and inactive calls. Rule as the data show it: active = growth inhibition above about 70%; inactive = the rest.
measurement-kind: growth inhibition

[[record]]
compound = "CC1OCC2CC3(O1)OC3C(COCC1OC3COC(C)OC4(C3)OC14)O2 (configuration not stated)"
measurement_kind = "growth inhibition"
measured = "-44.5% (inactive)"


Data request, read-out growth inhibition, for Cc1onc(-c2ccccc2)c1NC(=O)OC(C)c1cccnc1 (configuration not stated)
4.9% (inactive)

Cool, now O=C(O)C1CC=CCC1C(=O)Nc1cccc(O)c1 (configuration not stated)
38.5% (inactive)

Cool, now COc1ccc(N=Cc2ccc(N(CCC#N)S(=O)(=O)c3ccccc3)cc2C)cc1
13.4% (inactive)

Cool, now CCCCCNC(=O)Nc1cccc(Cl)c1C
11.4% (inactive)

Cool, now Cc1ccc2c(c1)[nH]c(=S)n2C=C1C(=O)NC(=O)NC1=O
-10.6% (inactive)

Cool, now c1ccc(CNC2CC3CCC2C3)cc1 (configuration not stated)
-5.15% (inactive)

Cool, now CCc1c([N+](=O)[O-])cc(C(C)(C)C)c(OC)c1[N+](=O)[O-]
-17.6% (inactive)

Cool, now C=CCc1cc(OC)ccc1O
-3% (inactive)

Cool, now Nc1ccc(C2=Nc3ccccc3SC(c3ccccc3O)C2)cc1 (configuration not stated)
19% (inactive)

Cool, now CCN(CC)CCCC#N
-13% (inactive)

Cool, now CC(C)SC(C)(NC(=O)C1C(C)(C)CCC1(C)C)C(=O)O (configuration not stated)
1.5% (inactive)

* * *

assay: NCI Yeast Anticancer Drug Screen. Data for the mec2-1 strain (AID 157); conditions: S. cerevisiae mec2-1 strain, at 50.0 µM
About 79,000 compounds went through this panel and 15% of them were active in at least one assay; those are over-represented in the sample as a whole. Activity calls are given as the source filed them. Rule as the data show it: active = growth inhibition above about 70%; inactive = the rest.
Result category, one only: label 1 (active), label 0 (inactive)

// known answers, use as guide
[[record]]
molecule = "CC(=O)Nc1cc(NC(C)=O)c(N=O)c(NC(C)=O)n1"
cat = "label 0"

[[record]]
molecule = "O=C1C(Br)=C(Br)C(=O)C2=C1C1c3ccccc3C2c2ccccc21"
cat = "label 1"

[[record]]
molecule = "N#Cc1cccc(/C=C\\C(=O)c2ccccc2)c1"
cat = "label 0"

[[record]]
molecule = "CC(/C=N/NC1=NCCCCN1)=N\\NC1=NCCCCN1"
cat = "label 0"

[[record]]
molecule = "O=C(NC(=O)c1cccc(Cl)c1)Nc1ccccc1"
cat = "label 0"

[[record]]
molecule = "N#Cc1c(-c2ccccc2)ssc1=S"
cat = "label 0"


Tell me the assay call for C=CCNC(=O)N(CCC)CCCC(NC(C)=O)C(=O)NCc1ccccc1 (stereo not given) please.
label 0

* * *

experiment: NCI Yeast Anticancer Drug Screen. Data for the mlh1 rad18 strain (AID 175); conditions: S. cerevisiae mlh1 rad18 strain growth inhibition; at 50.0 µM
Compounds without any hit were thinned out: in the full panel of roughly 79,000, 15% have a hit. The source made the active and inactive calls. Cut-off read from the data, not from the text of the source: active = growth inhibition above about 70%; inactive = the rest.
Result category, one only: true for active, false for inactive

[[record]]
molecule = "O=C(c1ccccc1)c1cccc(C(=O)c2ccccc2)n1"
cat = "false"

[[record]]
molecule = "Cc1ccc(S(=O)(=O)Oc2ccccc2NS(=O)(=O)c2ccccc2)cc1"
cat = "false"

[[record]]
molecule = "N#CCc1csc(-c2ccccc2)n1"
cat = "false"

[[record]]
molecule = "O=C1OC(=O)c2c1ccc1ccccc21"
cat = "false"

[[record]]
molecule = "COc1cccc2c1C(=O)c1c(O)c3c(c(O)c1C2=O)CC(O)(C(O)CO)CC3OC1CC(N2CCSCC2)C(O)C(C)O1 (centres undefined)"
cat = "true"


Tell me the assay call for COc1ccc(C(C)(C)C#N)cc1 please.
false

Cool, now CCOC(=O)Cc1nnc2n(-c3ccccc3)c(=O)c3ccccc3n12
false

Cool, now CC(Cc1ccccc1)Nc1ncnc2c1ncn2C1OC(CO)CC1O (centres undefined)
false

Cool, now Cc1ccc(P(=S)(c2ccc(C)c3ccccc23)c2ccc(C)c3ccccc23)c2ccccc12
false

Cool, now CC(OC(=O)CC(c1ccccc1)N1CCCCC1)c1ccccc1 (centres undefined)
false

Cool, now O=S(=O)(N/N=C(/CC/C(=N\NS(=O)(=O)c1ccccc1)c1ccccc1)c1ccccc1)c1ccccc1
false

Cool, now O=C(O)c1c(Cl)ccc([N+](=O)[O-])c1Cl
false

Cool, now CC(=O)OC/C=C(\C)CC(/C=C(C)/C=C/C1=C(C)CCCC1(C)C)S(=O)(=O)c1ccccc1 (centres undefined)
false

Cool, now N#Cc1nc(NC(=O)c2ccccc2)sc1N
false

Cool, now CC(C)=NN/C=N/S(=O)(=O)c1ccc(C)cc1
false

Cool, now O=S1(=O)NNC(=NCc2ccc(Cl)c(Cl)c2)c2ccccc21
false

Cool, now CC(O)c1nc2c3ccccc3ccc2n1C (centres undefined)
false

Cool, now COC(=O)C(Cc1nc2ccc(Cl)cc2[nH]c1=O)C(=O)C(=O)Nc1cc(C)ccc1C (centres undefined)
false

Cool, now CCOC(=O)C(CC)C1=CCCCC1 (centres undefined)
false

Cool, now O=[n+]1c2c(n([O-])c3ccccc31)CCCCC2
false

Cool, now CCOC(=O)Nc1nc2c(s1)c([N+](=O)[O-])cn2C
false

Cool, now CCCC1OCC=CCO1
false

Cool, now CC(C)C(C)(C)C(N)=O
false

Cool, now COc1ccc(-c2cc(=O)c3c([nH]2)CCCC3)cc1
false
